target-or-test-system: AURKB (MV4-11^AURKB-HiBiT cells) (Homo sapiens, UniProt Q96GD4)
Construct: expressed in transfected cells; host or cells: MV4-11, lentiviral transduction (pRRL-PGK vector)
Sequence (Q96GD4 1-345 isoform Q96GD4-5): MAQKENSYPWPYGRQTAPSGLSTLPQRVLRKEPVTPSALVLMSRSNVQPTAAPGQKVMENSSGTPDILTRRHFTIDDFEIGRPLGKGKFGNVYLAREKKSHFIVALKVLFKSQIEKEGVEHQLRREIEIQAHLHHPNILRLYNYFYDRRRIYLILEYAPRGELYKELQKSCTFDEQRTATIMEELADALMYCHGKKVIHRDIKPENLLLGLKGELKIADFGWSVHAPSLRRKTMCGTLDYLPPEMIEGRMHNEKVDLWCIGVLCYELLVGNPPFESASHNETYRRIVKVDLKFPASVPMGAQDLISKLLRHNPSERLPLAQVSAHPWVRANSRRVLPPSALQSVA
assay-comment: HiBiT assay, AURKB degradation
Assay type: cell-based
test-settings: 6 h treatment, read-out: DC50 (half-maximal degradation concentration) AURKB
assay-endpoint: DC50 (nM)
Please reply with the bare figure in nM and do not write the unit itself.

For this compound ( CC(C)S(=O)(=O)c1ccccc1Nc1nc(Nc2ccc(N3CCN(CCCCC(=O)Nc4cccc5c4C(=O)N(C4CCC(=O)NC4=O)C5=O)CC3)cc2)nc2[nH]cnc12 (stereo not shown) [Compound 28] ), measured DC50 is 273

The value of DC50 measured for the compound Cc1ncsc1-c1ccc(CNC(=O)[C@@H]2C[C@H](O)CN2C(=O)[C@@H](NC(=O)COCCOCC(=O)N2CCN(c3ccc(Nc4nc(Nc5ccccc5S(=O)(=O)C(C)C)c5nc[nH]c5n4)cc3)CC2)C(C)(C)C)cc1 [Compound 51] turned out to be 1160

* * *

target-or-test-system: TTK (MV4-11^HiBiT-TTK cells) (Homo sapiens, UniProt P33981)
Construct: expressed in transfected cells; host or cells: MV4-11, lentiviral transduction (pRRL-PGK-HiBiT entry vector)
Sequence (P33981 1-857): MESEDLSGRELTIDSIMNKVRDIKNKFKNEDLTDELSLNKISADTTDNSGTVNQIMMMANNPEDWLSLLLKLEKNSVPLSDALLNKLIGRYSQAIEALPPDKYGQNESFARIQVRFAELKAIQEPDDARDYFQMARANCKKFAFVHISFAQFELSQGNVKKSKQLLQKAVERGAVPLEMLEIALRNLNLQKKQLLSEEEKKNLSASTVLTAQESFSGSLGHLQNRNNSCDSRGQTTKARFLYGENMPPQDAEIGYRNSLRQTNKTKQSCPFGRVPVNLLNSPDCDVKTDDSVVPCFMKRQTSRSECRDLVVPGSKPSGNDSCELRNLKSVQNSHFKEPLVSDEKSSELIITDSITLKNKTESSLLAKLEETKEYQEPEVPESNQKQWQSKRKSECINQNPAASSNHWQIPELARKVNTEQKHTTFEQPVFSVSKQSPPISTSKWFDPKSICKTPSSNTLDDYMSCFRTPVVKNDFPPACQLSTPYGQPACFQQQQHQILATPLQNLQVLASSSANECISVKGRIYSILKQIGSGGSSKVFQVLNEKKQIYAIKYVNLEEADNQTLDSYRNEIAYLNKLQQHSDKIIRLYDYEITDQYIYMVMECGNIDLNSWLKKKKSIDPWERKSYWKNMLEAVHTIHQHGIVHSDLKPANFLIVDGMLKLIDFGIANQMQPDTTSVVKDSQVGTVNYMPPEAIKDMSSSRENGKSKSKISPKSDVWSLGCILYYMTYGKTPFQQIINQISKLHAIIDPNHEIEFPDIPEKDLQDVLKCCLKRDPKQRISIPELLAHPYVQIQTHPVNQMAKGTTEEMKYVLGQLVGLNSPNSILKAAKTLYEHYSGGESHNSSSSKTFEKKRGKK
assay-comment: HiBiT assay, TTK degradation
Format: cell-based
test-settings: 6 h treatment, MV4-11^HiBiT-TTK cells; read-out: DC50 (half-maximal degradation concentration) TTK
Experimental: The effects of the synthesized compounds on AURKA, AURKB, and TTK mitotic kinases were then assessed in cellular systems. For this, HiBiT cell lines were generated for all three mitotic kinases. […] The cells stably expressing HiBiT-tagged protein were seeded into 96-well plates and treated with serial dilutions of compounds for the indicated time points. […] Luminescence was measured on a GloMax 96 Microplate Luminometer (Promega) or a Tecan Spark Multiplate reader (Tecan). […]
assay-endpoint: DC50 (nM)
Quick note: give the figure in nM, leave out the unit.

Reference set (8 entries):
>  <compound>
CC(C)S(=O)(=O)c1ccccc1Nc1nc(Nc2ccc(N3CCN(C(=O)CCC(=O)Nc4cccc5c4C(=O)N(C4CCC(=O)NC4=O)C5=O)CC3)cc2)nc2[nH]cnc12 (stereo not shown)

>  <target-or-test-system>
TTK (MV4-11^HiBiT-TTK cells) (Homo sapiens, UniProt P33981)

>  <DC50 (nM)>
42

$$$$
>  <compound>
CC(C)S(=O)(=O)c1ccccc1Nc1nc(Nc2ccc(N3CCN(C(=O)CNC(=O)CCCC(=O)Nc4cccc5c4C(=O)N(C4CCC(=O)NC4=O)C5=O)CC3)cc2)nc2[nH]cnc12 (stereo not shown)

>  <target-or-test-system>
TTK (MV4-11^HiBiT-TTK cells) (Homo sapiens, UniProt P33981)

>  <DC50 (nM)>
281

$$$$
>  <compound>
c1nc2c(NC3CCCCC3)nc(Nc3ccc(N4CCNCC4)cc3)nc2[nH]1 [azareversine, reference compound]

>  <target-or-test-system>
TTK (MV4-11^HiBiT-TTK cells) (Homo sapiens, UniProt P33981)

>  <DC50 (nM)>
118

$$$$
>  <compound>
Cc1ncsc1-c1ccc(CNC(=O)[C@@H]2C[C@@H](O)CN2C(=O)[C@@H](NC(=O)CCC(=O)NCCNC(=O)CCC(=O)N2CCN(c3ccc(Nc4nc(NC5CCCCC5)c5nc[nH]c5n4)cc3)CC2)C(C)(C)C)cc1

>  <target-or-test-system>
TTK (MV4-11^HiBiT-TTK cells) (Homo sapiens, UniProt P33981)

>  <DC50 (nM)>
5650

$$$$
>  <compound>
CC(C)S(=O)(=O)c1ccccc1Nc1nc(Nc2ccc(N3CCN(CCCC(=O)Nc4cccc5c4C(=O)N(C4CCC(=O)NC4=O)C5=O)CC3)cc2)nc2[nH]cnc12 (stereo not shown)

>  <target-or-test-system>
TTK (MV4-11^HiBiT-TTK cells) (Homo sapiens, UniProt P33981)

>  <DC50 (nM)>
89.1

$$$$
>  <compound>
Cc1ncsc1-c1ccc(CNC(=O)[C@@H]2C[C@H](O)CN2C(=O)[C@@H](NC(=O)COCCOCC(=O)N2CCN(c3ccc(Nc4nc(Nc5ccccc5S(=O)(=O)C(C)C)c5nc[nH]c5n4)cc3)CC2)C(C)(C)C)cc1

>  <target-or-test-system>
TTK (MV4-11^HiBiT-TTK cells) (Homo sapiens, UniProt P33981)

>  <DC50 (nM)>
993

$$$$
>  <compound>
O=C1CCC(N2C(=O)c3cccc(NC(=O)CCCC(=O)N4CCN(c5ccc(Nc6nc(NC7CCCCC7)c7nc[nH]c7n6)cc5)CC4)c3C2=O)C(=O)N1 (stereo not shown)

>  <target-or-test-system>
TTK (MV4-11^HiBiT-TTK cells) (Homo sapiens, UniProt P33981)

>  <DC50 (nM)>
3

$$$$
>  <compound>
Cc1ncsc1-c1ccc(CNC(=O)[C@@H]2C[C@@H](O)CN2C(=O)[C@@H](NC(=O)COCCOCC(=O)N2CCN(c3ccc(Nc4nc(Nc5ccccc5S(=O)(=O)C(C)C)c5nc[nH]c5n4)cc3)CC2)C(C)(C)C)cc1

>  <target-or-test-system>
TTK (MV4-11^HiBiT-TTK cells) (Homo sapiens, UniProt P33981)

>  <DC50 (nM)>
5710

$$$$

// sample COc1cc(N2CCN(C(=O)CNC(=O)CCCC(=O)Nc3cccc4c3C(=O)N(C3CCC(=O)NC3=O)C4=O)CC2)ccc1Nc1nc(Nc2ccccc2S(=O)(=O)C(C)C)c2nc[nH]c2n1 (stereo not shown) , its DC50 was 26

Record CC(C)S(=O)(=O)c1ccccc1Nc1nc(Nc2ccc(N3CCNCC3)cc2)nc2[nH]cnc12 . Reported DC50: 1270

Entry under test: CC(C)S(=O)(=O)c1ccccc1Nc1nc(Nc2ccc(N3CCN(C(=O)CCCC(=O)Nc4cccc5c4C(=O)N(C4CCC(=O)NC4=O)C5=O)CC3)cc2)nc2[nH]cnc12 (stereo not shown) . Its DC50 was 396

Briefly, DC50 measured for O=C1CCC(N2C(=O)c3cccc(NC(=O)COCCOCC(=O)N4CCN(c5ccc(Nc6nc(NC7CCCCC7)c7nc[nH]c7n6)cc5)CC4)c3C2=O)C(=O)N1 (stereo not shown) : 66

Lab book: DC50 of CN1C(=O)CCC(N2C(=O)c3cccc(NC(=O)CCCC(=O)NCC(=O)N4CCN(c5ccc(Nc6nc(NC7CCCCC7)c7nc[nH]c7n6)cc5)CC4)c3C2=O)C1=O (stereo not shown) noted as 600

Entry Cc1ncsc1-c1ccc(CNC(=O)[C@@H]2C[C@@H](O)CN2C(=O)[C@@H](NC(=O)CCC(=O)NCCCNC(=O)CCC(=O)N2CCN(c3ccc(Nc4nc(NC5CCCCC5)c5nc[nH]c5n4)cc3)CC2)C(C)(C)C)cc1 , DC50 reported as 1890

* * *

target-or-test-system: AURKB (MV4-11^AURKB-HiBiT cells) (Homo sapiens, UniProt Q96GD4)
Construct: expressed in transfected cells; host or cells: MV4-11, lentiviral transduction (pRRL-PGK vector)
assay-comment: HiBiT assay, AURKB degradation
Type: cell-based
test-settings: 6 h treatment, read-out: DC50 (half-maximal degradation concentration) AURKB
assay-endpoint: DC50 (nM)
// return numeric value only (unit: nM, not printed)

Example entries and their recorded answers appear below.
>  <molecule>
COc1cc(N2CCC(O)CC2)ccc1Nc1nc(Nc2ccccc2S(=O)(=O)C(C)C)c2nc[nH]c2n1 [MPS1-IN-3, reference compound]

>  <DC50 / nM>
3210

$$$$
>  <molecule>
CC(C)S(=O)(=O)c1ccccc1Nc1nc(Nc2ccc(N3CCN(C(=O)CCCC(=O)Nc4cccc5c4C(=O)N(C4CCC(=O)NC4=O)C5=O)CC3)cc2)nc2[nH]cnc12 (stereo not shown)

>  <DC50 / nM>
168

$$$$
>  <molecule>
CC(C)S(=O)(=O)c1ccccc1Nc1nc(Nc2ccc(N3CCN(CCCC(=O)Nc4cccc5c4C(=O)N(C4CCC(=O)NC4=O)C5=O)CC3)cc2)nc2[nH]cnc12 (stereo not shown)

>  <DC50 / nM>
270

$$$$
>  <molecule>
O=C(CCCC(=O)Nc1cccc2c1C(=O)N(C1CCC(=O)NC1=O)C2=O)NCC(=O)N1CCN(c2ccc(Nc3nc(NC4CCCCC4)c4nc[nH]c4n3)cc2)CC1 (stereo not shown)

>  <DC50 / nM>
570

$$$$
>  <molecule>
CC(C)S(=O)(=O)c1ccccc1Nc1nc(Nc2ccc(N3CCN(C(=O)CNC(=O)CCCC(=O)Nc4cccc5c4C(=O)N(C4CCC(=O)NC4=O)C5=O)CC3)cc2)nc2[nH]cnc12 (stereo not shown)

>  <DC50 / nM>
248

$$$$
>  <molecule>
CC(C)S(=O)(=O)c1ccccc1Nc1nc(Nc2ccc(N3CCNCC3)cc2)nc2[nH]cnc12

>  <DC50 / nM>
993

$$$$

Proceeding to the next molecule to report its DC50.
Record summary for CC(C)S(=O)(=O)c1ccccc1Nc1nc(Nc2ccc(N3CCN(CC(=O)Nc4cccc5c4C(=O)N(C4CCC(=O)NC4=O)C5=O)CC3)cc2)nc2[nH]cnc12 (stereo not shown) : reported DC50 = 2690
